Value source: patent US20120122727A1

Tested on: primary mouse hepatocytes
Procedure Details: Gene expression (Affymetrix Mouse Genome 430 2.0) in primary mouse hepatocytes, true vs false GTX, 24 h and 48 h
Condition Label: 24 h average; log2, corrected for vehicle control

{"Compound": "c1ccc2c(c1)cc1ccc3cccc4ccc2c1c34 [BaP, Benzo(a)pyrene]", "Gene expression data BG261907 (Large)": "−1.3429"}
{"Compound": "O=c1c(O)c(-c2ccc(O)c(O)c2)oc2cc(O)cc(O)c12 [Q, Quercetin]", "Gene expression data BG261907 (Large)": 0.3964}
{"Compound": "Nc1ccccc1C(=O)O [ANAC, o-Anthranilic acid]", "Gene expression data BG261907 (Large)": 0.09293}
{"Compound": "CN(C)N=O [DMN, Dimethylnitrosamine]", "Gene expression data BG261907 (Large)": "−1.3871"}
{"Compound": "Nc1ccc([N+](=O)[O-])cc1N [4-NP, 4-Nitro-o-phenylenediamine]", "Gene expression data BG261907 (Large)": 0.3643}
{"Compound": "CC(=O)Nc1ccc2c(c1)Cc1ccccc1-2 [2-AAF, 2-Acetylaminofluorene]", "Gene expression data BG261907 (Large)": "−0.2502"}

---

# Lookup of reported Gene expression AK010447 average keyed by entry
Test system: primary mouse hepatocytes
Procedure Details: Gene expression (Affymetrix Mouse Genome 430 2.0) in primary mouse hepatocytes, true vs false GTX, 24 h and 48 h
Condition Label: 48 h; log2, corrected for vehicle control
Recorded Endpoint: Gene expression AK010447 average

{"Smi": "Nc1ccc([N+](=O)[O-])cc1N", "Test Value": 0.5956}
{"Smi": "c1ccc2c(c1)cc1ccc3cccc4ccc2c1c34", "Test Value": "−1.207"}
{"Smi": "Nc1ccccc1C(=O)O", "Test Value": "−0.1083"}
{"Smi": "CN(C)N=O", "Test Value": "−0.8634"}
{"Smi": "CC(=O)Nc1ccc2c(c1)Cc1ccccc1-2", "Test Value": "−0.3256"}
{"Smi": "O=c1c(O)c(-c2ccc(O)c(O)c2)oc2cc(O)cc(O)c12", "Test Value": "−0.1277"}

---

System: primary mouse hepatocytes
Procedure Details: Gene expression (Affymetrix Mouse Genome 430 2.0) in primary mouse hepatocytes, true vs false GTX, 24 h and 48 h
Condition Label: 24 h average; log2, corrected for vehicle control
Lab note - cut at -0.2 for Gene expression data BG070887 (Gtdc1): TRUE if strictly below, FALSE if not.

{"Molecule": "O=c1c(O)c(-c2ccc(O)c(O)c2)oc2cc(O)cc(O)c12 [Q, Quercetin]", "Cat": "TRUE"}
{"Molecule": "CN(C)N=O [DMN, Dimethylnitrosamine]", "Cat": "TRUE"}
{"Molecule": "c1ccc2c(c1)cc1ccc3cccc4ccc2c1c34 [BaP, Benzo(a)pyrene]", "Cat": "TRUE"}
{"Molecule": "Nc1ccc([N+](=O)[O-])cc1N [4-NP, 4-Nitro-o-phenylenediamine]", "Cat": "FALSE"}
{"Molecule": "CC(=O)Nc1ccc2c(c1)Cc1ccccc1-2 [2-AAF, 2-Acetylaminofluorene]", "Cat": "FALSE"}
{"Molecule": "Nc1ccccc1C(=O)O [ANAC, o-Anthranilic acid]", "Cat": "FALSE"}

---

Test system: primary mouse hepatocytes
Procedure Details: Gene expression (Affymetrix Mouse Genome 430 2.0) in primary mouse hepatocytes, true vs false GTX, 24 h and 48 h
Condition Label: 24 h average; log2, corrected for vehicle control
Lab note - cut at 0.3 for Gene expression data AV095209 (Mthfd1l): 1 (yes) if strictly below, 0 (no) if not.

{"Molecule": "Nc1ccccc1C(=O)O [ANAC, o-Anthranilic acid]", "Cat": "0 (no)"}
{"Molecule": "CC(=O)Nc1ccc2c(c1)Cc1ccccc1-2 [2-AAF, 2-Acetylaminofluorene]", "Cat": "0 (no)"}
{"Molecule": "c1ccc2c(c1)cc1ccc3cccc4ccc2c1c34 [BaP, Benzo(a)pyrene]", "Cat": "1 (yes)"}
{"Molecule": "Nc1ccc([N+](=O)[O-])cc1N [4-NP, 4-Nitro-o-phenylenediamine]", "Cat": "0 (no)"}
{"Molecule": "O=c1c(O)c(-c2ccc(O)c(O)c2)oc2cc(O)cc(O)c12 [Q, Quercetin]", "Cat": "0 (no)"}
{"Molecule": "CN(C)N=O [DMN, Dimethylnitrosamine]", "Cat": "1 (yes)"}

---

Test system: primary mouse hepatocytes
Procedure Details: Gene expression (Affymetrix Mouse Genome 430 2.0) in primary mouse hepatocytes, true vs false GTX, 24 h and 48 h
Condition Label: 48 h; log2, corrected for vehicle control
Lab note - cut at 0.4 for Gene expression NM_011316 average: yes if strictly below, no if not.

{"Smi": "Nc1ccc([N+](=O)[O-])cc1N", "Cat": "yes"}
{"Smi": "Nc1ccccc1C(=O)O", "Cat": "yes"}
{"Smi": "O=c1c(O)c(-c2ccc(O)c(O)c2)oc2cc(O)cc(O)c12", "Cat": "yes"}
{"Smi": "c1ccc2c(c1)cc1ccc3cccc4ccc2c1c34", "Cat": "no"}
{"Smi": "CC(=O)Nc1ccc2c(c1)Cc1ccccc1-2", "Cat": "no"}
{"Smi": "CN(C)N=O", "Cat": "no"}

---

System: primary mouse hepatocytes
Procedure Details: Gene expression (Affymetrix Mouse Genome 430 2.0) in primary mouse hepatocytes, true vs false GTX, 24 h and 48 h
Condition Label: 48 h; log2, corrected for vehicle control
Threshold rule: Gene expression BC027121 average greater than or equal to -0.1 is yes; below that, no.

{"Compound": "Nc1ccccc1C(=O)O [ANAC, o-Anthranilic acid]", "Cat": "no"}
{"Compound": "c1ccc2c(c1)cc1ccc3cccc4ccc2c1c34 [BaP, Benzo(a)pyrene]", "Cat": "yes"}
{"Compound": "O=c1c(O)c(-c2ccc(O)c(O)c2)oc2cc(O)cc(O)c12 [Q, Quercetin]", "Cat": "yes"}
{"Compound": "CN(C)N=O [DMN, Dimethylnitrosamine]", "Cat": "yes"}
{"Compound": "CC(=O)Nc1ccc2c(c1)Cc1ccccc1-2 [2-AAF, 2-Acetylaminofluorene]", "Cat": "no"}
{"Compound": "Nc1ccc([N+](=O)[O-])cc1N [4-NP, 4-Nitro-o-phenylenediamine]", "Cat": "no"}

---

Test system: primary mouse hepatocytes
Procedure Details: Gene expression (Affymetrix Mouse Genome 430 2.0) in primary mouse hepatocytes, true vs false GTX, 24 h and 48 h
Condition Label: 24 h average; log2, corrected for vehicle control
Threshold rule: Gene expression data BC008626 (Icam1) greater than or equal to -0.4 is rule met; below that, rule not met.

{"Smi": "Nc1ccccc1C(=O)O", "Cat": "rule met"}
{"Smi": "Nc1ccc([N+](=O)[O-])cc1N", "Cat": "rule not met"}
{"Smi": "O=c1c(O)c(-c2ccc(O)c(O)c2)oc2cc(O)cc(O)c12", "Cat": "rule met"}
{"Smi": "CC(=O)Nc1ccc2c(c1)Cc1ccccc1-2", "Cat": "rule not met"}
{"Smi": "c1ccc2c(c1)cc1ccc3cccc4ccc2c1c34", "Cat": "rule met"}
{"Smi": "CN(C)N=O", "Cat": "rule met"}

---

System: primary mouse hepatocytes
Procedure Details: Gene expression (Affymetrix Mouse Genome 430 2.0) in primary mouse hepatocytes, true vs false GTX, 24 h and 48 h
Condition Label: 24 h average; log2, corrected for vehicle control

{"Compound": "Nc1ccccc1C(=O)O [ANAC, o-Anthranilic acid]", "Experimental System": "primary mouse hepatocytes", "Gene expression data AI594683 (Dmn)": "−0.2163"}
{"Compound": "CN(C)N=O [DMN, Dimethylnitrosamine]", "Experimental System": "primary mouse hepatocytes", "Gene expression data AI594683 (Dmn)": 3.164}
{"Compound": "O=c1c(O)c(-c2ccc(O)c(O)c2)oc2cc(O)cc(O)c12 [Q, Quercetin]", "Experimental System": "primary mouse hepatocytes", "Gene expression data AI594683 (Dmn)": "−0.2712"}
{"Compound": "CC(=O)Nc1ccc2c(c1)Cc1ccccc1-2 [2-AAF, 2-Acetylaminofluorene]", "Experimental System": "primary mouse hepatocytes", "Gene expression data AI594683 (Dmn)": "−0.2452"}
{"Compound": "Nc1ccc([N+](=O)[O-])cc1N [4-NP, 4-Nitro-o-phenylenediamine]", "Experimental System": "primary mouse hepatocytes", "Gene expression data AI594683 (Dmn)": "−0.3517"}
{"Compound": "c1ccc2c(c1)cc1ccc3cccc4ccc2c1c34 [BaP, Benzo(a)pyrene]", "Experimental System": "primary mouse hepatocytes", "Gene expression data AI594683 (Dmn)": 0.731}

---

System: primary mouse hepatocytes
Procedure Details: Gene expression (Affymetrix Mouse Genome 430 2.0) in primary mouse hepatocytes, true vs false GTX, 24 h and 48 h
Condition Label: 24 h average; log2, corrected for vehicle control
# Lookup of reported Gene expression data NM_011316 (Saa4) keyed by entry

{"Smi": "CC(=O)Nc1ccc2c(c1)Cc1ccccc1-2", "Gene expression data NM_011316 (Saa4)": "−0.3157"}
{"Smi": "CN(C)N=O", "Gene expression data NM_011316 (Saa4)": 2.1585}
{"Smi": "Nc1ccc([N+](=O)[O-])cc1N", "Gene expression data NM_011316 (Saa4)": "−0.5909"}
{"Smi": "Nc1ccccc1C(=O)O", "Gene expression data NM_011316 (Saa4)": "−0.1988"}
{"Smi": "O=c1c(O)c(-c2ccc(O)c(O)c2)oc2cc(O)cc(O)c12", "Gene expression data NM_011316 (Saa4)": "−0.1314"}
{"Smi": "c1ccc2c(c1)cc1ccc3cccc4ccc2c1c34", "Gene expression data NM_011316 (Saa4)": 0.1871}
